- ASSAY_PROTOCOL: Chemical and physical stability studies under ICH storage conditions (extraction, HPLC, appearance)
- Assay type: physicochemical
- CONDITION_INFO: in Composition A; 25° C./60% RH; one month
Structures can show the parent of a compound that is named as a salt.
Answer each item with its documented calc. percentage of actives after storage for one month, 25° C..
Dear colleague, please send the value followed by its unit.

Look up calc. percentage of actives after storage for one month, 25° C.: "CCCOC(=O)c1ccc(O)cc1"
102%

Also CN(C)CCC=C1c2ccccc2CCc2ccccc21 [Amitriptyline Hydrochloride, Amitriptyline hydrochloride] , if possible.
103%

Also "COC(=O)c1ccc(O)cc1" , if possible.
103%

Also CNC1(c2ccccc2Cl)CCCCC1=O (stereo not shown) [Ketamine Hydrochloride, Ketamine hydrochloride] , if possible.
103%

All figures here come from patent US6638981B2.
